Source: paper PMC10302166

Molecular target: T1, 14-3-3ζ-strep (human, UniProt P63104 1-245)
T1 chain: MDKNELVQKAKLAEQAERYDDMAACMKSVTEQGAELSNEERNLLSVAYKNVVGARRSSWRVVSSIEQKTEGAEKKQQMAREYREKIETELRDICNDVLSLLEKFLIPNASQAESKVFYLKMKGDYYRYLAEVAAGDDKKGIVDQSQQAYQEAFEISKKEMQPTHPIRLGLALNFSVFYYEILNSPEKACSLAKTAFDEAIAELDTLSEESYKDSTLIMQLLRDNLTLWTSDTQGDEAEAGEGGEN
Test: FP
Where no end group is shown, it is not given here. [ ]: non-standard residue; d: D form. pT = C[C@@H](OP(=O)(O)O)[C@H](N)C(=O)O
observed.property: pKd
// pKd is dimensionless: -log10 of concentration (M)

Give the reported value of pKd for this record: AEGFPA[pT]V (also: fluorescein label, position not given here) [WT ERα phosphopeptide (fluorescein-labeled C-terminal peptide mimic, pT594)]
5.66

Specify reported pKd for the binder shown: AEGRRA[pT]V (also: fluorescein label, position not given here) [ERα(PKA) phosphopeptide (fluorescein-labeled C-terminal peptide mimic with F591R/P592R, pT594)]
6.52
